Can you tell me apparent KD of MS2 coat protein for the items I'm about to list?
Test system: MS2 coat protein
Assay: apparent KD of MS2 coat protein; designed switch direction (-1 OFF switch, 1 ON switch): -1; higher = weaker reporter binding
Conditions: input ligand: none
Response body: numeric value in nM, unit text excluded.

Specify apparent KD of MS2 coat protein for GCGGGUUUUUUGUUCGUUUACAUGAGGAUCACCCAUGUGUCUUCGCGUUCGGGUUCGGGCGGGCUUGGGCUUGGGCG [-26.2, -50.6, A 8%] (Eterna round: R97, puzzle: Sensor, turn-off variant 1) and stop.
47.8

Specify apparent KD of MS2 coat protein for UUUUGACAAGCGAGAUCCUACAUGAGGAUCACCCAUGUAGACCAUGGUUUCCAUGGUCUUUUUGCUCGUCUUGUGUG [jl TITIN mod 5] (Eterna round: R97, puzzle: Sensor, turn-off variant 1) and stop.
23.4

Specify apparent KD of MS2 coat protein for GGAAACCGAGGAUAUCAGUACACGCACAUGAGGAUCACCCAUGUGCUCCUGGGUGCUGUCUGAGAAGGCGGUGAGA [Quan] (Eterna round: R97, puzzle: Exclusion 5) and stop.
1620
